System: HS 578T breast
method: NCI-60 one-dose screen, 48 h (100 = growth as untreated, 0 = no growth, -100 = all killed)
condition context: 10 µM
Compounds without any hit were thinned out: in the full panel of roughly 83,000, 20% have a hit.
quantity measured: growth (%)
// return numeric value only (unit: %, not printed)

Some molecules with known growth results, for comparison:
chem smiles | growth / %
CCc1ccccc1-n1c(N)c(C#N)c(-c2ccc(OC)c(OC)c2)c(C#N)c1=O | 116
CC(C)(C)c1cc(NC(=O)Cc2ccc(-c3cnc4cc(-c5cnn(CCN6CCOCC6)c5)ccc4n3)cc2)no1 | -5.25
CC1(C)OB(c2ccc(Cn3cc(F)c(=O)[nH]c3=O)cc2)OC1(C)C | 100

Now for a further molecule.
Provide measured growth value, entry: CNC(=O)c1cc(Oc2ccc(CC(=O)Nc3cc(C(C)(C)C)nn3C)cc2)ccn1 65.4

* * *

// reported growth for each item listed
System: HS 578T breast
method: NCI-60 one-dose screen, 48 h (100 = growth as untreated, 0 = no growth, -100 = all killed)
condition context: 10 µM unless noted
The panel holds about 83,000 compounds, 20% with a hit somewhere; the sample as a whole holds those more often.
Just the number please, in %, no unit attached.

# count of solved cases: 5
molecule | unit tag | observed result
NC(=O)c1ccccc1OCC(O)CO (stereo not drawn) | % | 117
CCN(CC)C(=S)SSC(=S)N(CC)CC | % | 111
Cc1ccc(S(=O)(=O)NCN2C(=O)c3ccccc3C2=O)cc1 | % | 108
CC12CCC(CC1)C(C)(C)O2 | % | 102
COc1ccc(NC(=S)Nc2ccccn2)cc1 | % | 101

Let me know recorded growth for CN1CCN(c2ccc3nc(-c4c(N)c5c(F)cccc5[nH]c4=O)[nH]c3c2)CC1 , thanks. 2.57

Return growth (reported value) for this molecule: CCOC(=O)c1sc(N)nc1-c1ccccc1 106

Supply reported growth belonging to this molecule: CCN(CC)CCc1nc(-c2ccccc2)no1 98

Check the records and state growth for Nc1ccc2ccc(N)cc2c1 104

Give a short answer stating reported growth for Cc1ccc(S(=O)(=O)Nc2nc3ccccc3nc2Nc2ccc3nsnc3c2)cc1 . 11.4

* * *

System: HCT-116 colon
method: NCI-60 one-dose screen, 48 h (100 = growth as untreated, 0 = no growth, -100 = all killed)
condition context: 10 µM unless noted
Compounds without any hit were thinned out: in the full panel of roughly 83,000, 20% have a hit.
quantity measured: growth (%)
Give just the numeric value; % need not be written.

Observe how each entry below is paired with its result.
compound | growth, %
CC1=NN(c2ccccc2)C(=O)C1C(=O)c1ccccc1 (stereo unspecified) | 98.3
O=C(O)c1cc(C(=O)O)cc([N+](=O)[O-])c1 | 101
O=C(Cc1cccc2ccccc12)N/N=C/c1ccc2c(c1)CCC2 | 66.4

Give growth for CC(C(=O)O)n1cc(C#N)c(=O)[nH]c1=O (stereo unspecified) 105

Annotate the compound CC(/C=N/N1C(=O)c2ccccc2C1=O)c1ccccc1 (stereo unspecified) with its measured growth. 108

Quickly give me recorded growth for Clc1nc(Oc2ccccc2)nc(-c2cn(-c3ccccc3)c3ccccc23)n1 58.5

* * *

System: MOLT-4 leukemia
method: NCI-60 one-dose screen, 48 h
condition context: 100 µM
Compounds without any hit were thinned out: in the full panel of roughly 83,000, 20% have a hit. Active and inactive are the calls of the source. Rule for the calls: active = growth percent below 10; inactive = the rest.
Outcome field: choose from active, inactive

Illustrative cases are given below, each with its answer.
compound | label value
CC#C[C@]1(O)CC[C@H]2[C@@H]3CCC4=CC(=O)CCC4=C3[C@@H](c3ccc4c(c3)OCO4)C[C@@]21C | active
O=C(O)c1sccc1O | inactive
CCc1ccccc1-n1c(N)c(C#N)c(-c2ccc(OC)c(OC)c2)c(C#N)c1=O | inactive

Alright, here's another compound for you.
Which outcome did this test record for the compound Cc1[nH]c(-c2nc3ccccc3[nH]2)c(C)c1C(=O)NC(C)C1CCCCC1 (centres undefined) ? active

* * *

Test system: MDA-MB-435 melanoma
method: NCI-60 one-dose screen, 48 h (100 = growth as untreated, 0 = no growth, -100 = all killed)
condition context: 10 µM
About 83,000 compounds went through this panel and 20% of them were active in at least one assay; those are over-represented in the sample as a whole.
Entries and their growth
Write the number in % without appending the unit.

For orientation, consider the following solved cases.
molecule | observed result
CC#C[C@]1(O)CC[C@H]2[C@@H]3CCC4=CC(=O)CCC4=C3[C@@H](c3ccc4c(c3)OCO4)C[C@@]21C | 94.7
CC1(C)OB(c2ccc(Cn3cc(F)c(=O)[nH]c3=O)cc2)OC1(C)C | 83.6

Enter growth (test system MDA-MB-435 melanoma) for CC(C)(C)c1cc(NC(=O)Cc2ccc(-c3cnc4cc(-c5cnn(CCN6CCOCC6)c5)ccc4n3)cc2)no1 19.1

Recall the reported growth of CCCCCCCCCCCCCCCc1ccc(Cl)c(O)c1Cl (tested in a mixture with another compound) when tested on MDA-MB-435 melanoma. 103

With MDA-MB-435 melanoma as the test system, provide measured growth for this molecule: Cc1[nH]c(-c2nc3ccccc3[nH]2)c(C)c1C(=O)NC(C)C1CCCCC1 (stereo not given) 37.5

* * *

Tested on: OVCAR-3 ovarian
method: NCI-60 one-dose screen, 48 h (100 = growth as untreated, 0 = no growth, -100 = all killed)
condition context: 10 µM
The panel holds about 83,000 compounds, 20% with a hit somewhere; the sample as a whole holds those more often.
Measured growth values are reported for all entries that follow.
Write the answer as a number in %, unit excluded.

compound | quantity measured | observed result
Cc1[nH]c(-c2nc3ccccc3[nH]2)c(C)c1C(=O)NC(C)C1CCCCC1 (stereo not given) | growth | 90
CC#C[C@]1(O)CC[C@H]2[C@@H]3CCC4=CC(=O)CCC4=C3[C@@H](c3ccc4c(c3)OCO4)C[C@@]21C | growth | 78
CCc1ccccc1-n1c(N)c(C#N)c(-c2ccc(OC)c(OC)c2)c(C#N)c1=O | growth | 113
CNC(=O)c1cc(Oc2ccc(CC(=O)Nc3cc(C(C)(C)C)nn3C)cc2)ccn1 | growth | 69.6

// below: growth requested for another compound
# return growth of CC1(C)OB(c2ccc(Cn3cc(F)c(=O)[nH]c3=O)cc2)OC1(C)C (system: OVCAR-3 ovarian) 104

* * *

Quick reference: growth of the listed items.
Test system: SNB-75 CNS
method: NCI-60 one-dose screen, 48 h (100 = growth as untreated, 0 = no growth, -100 = all killed)
condition context: 10 µM unless noted
About 83,000 compounds went through this panel and 20% of them were active in at least one assay; those are over-represented in the sample as a whole.
Answer with a number only, understood to be in %.

compound | quantity measured | observed result
CN1CCN(Cc2occc(=O)c2O)CCN(C)CCN(Cc2occc(=O)c2O)CC1 | growth | 100
COc1ccc2ccccc2c1/C=N/N1CCCCC1 | growth | 87.6
CC(O)Cn1cnc2c1c(=O)n(C)c(=O)n2C (stereo unspecified) | growth | 83.5
CC1=NN(c2ccccc2)C(=O)C1C(=O)c1ccccc1 (stereo unspecified) | growth | 103
NC(=S)NS(=O)(=O)c1ccc(N)cc1 | growth | 93

// next entry
Write down growth measured for item N#C/C(=C/c1c(O)ccc2ccccc12)C(N)=O 87.4

* * *

A collection of molecules and their measured growth
Test system: NCI-H23 lung
method: NCI-60 one-dose screen, 48 h (100 = growth as untreated, 0 = no growth, -100 = all killed)
condition context: 10 µM unless noted
Procedure: Growth inhibition of the NCI-H23 human Non-Small Cell Lung tumor cell line is measured as a screen for anti-cancer activity. Cells are grown in 96 well plates and exposed to the test compound for 48 hours. Compounds are tested at a single concentration, which is 10^-5 M for most compounds. The reported endpoint is percent growth (GI% or GIPRCNT), where numbers from 0 - 100% represent growth inhibition, and numbers from -100% - 0 represent cell death. […]
Compounds without any hit were thinned out: in the full panel of roughly 83,000, 20% have a hit.
Quick reminder: number only, in %, skip the unit.

molecule | tested system | unit tag | growth
Nc1n[nH]c(=S)n1-c1ccc(Cl)cc1 | NCI-H23 lung | % | 95.9
Nc1ccc2[nH]c(-c3ccccc3)cc(=O)c2c1 | NCI-H23 lung | % | 98.3
CN(Cc1ccccc1)Cc1ccccc1 | NCI-H23 lung | % | 96.6
S=C1SCN(Cc2ccccc2)CN1Cc1ccccc1 | NCI-H23 lung | % | 81.2
Cc1ccc(-c2noc(CC(=O)c3ccc([N+](=O)[O-])cc3)n2)cc1 | NCI-H23 lung | % | 95.9

Note growth for the molecule shown: Cc1ccc2nc3c(nc2c1)-c1cccc2cccc-3c12 89.5

Supply measured growth of NCCSC(C[N+](=O)[O-])c1ccccc1Cl (stereo not drawn) in your reply. 95.6

Annotate the molecule O=C1c2ccccc2C(=O)N1/N=C/c1ccc2c(c1)OCO2 with its measured growth. 120
